# credit: patent US20210380703A1

Items are presented alongside their recorded optical density.
# target-desc: T1, mouse ACVR2A (mouse, UniProt P27038 20-135, limits assumed); note: test concentration or dose not given here
# T1 construct: coated antigen of the initial ELISA
# T1 sequence (P27038 20-135 limits assumed): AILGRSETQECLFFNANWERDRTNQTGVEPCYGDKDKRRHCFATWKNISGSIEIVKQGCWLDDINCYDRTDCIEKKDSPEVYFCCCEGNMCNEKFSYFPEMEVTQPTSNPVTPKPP
# experiment-summary: ELISA
Quick reminder: number only, in OD, skip the unit.

In the examples that follow, each entry is paired with its recorded optical density.
373_A05 (antibody, V domains shown, Group III) VH: EVQLLESGGGLVQPGGSLRLSCAASGFTFSDYSMNWVRQAPGKGLEWVSGINYNSGYKSYADSVKGRFTISRDNSKNTLYLQMNSLRAEDTAVYYCARGANWHDTHLDYWGQGTLVTVSS VL: DIQMTQSPSSLSASVGDRVTITCRASQSILSYVNWYQQKPGKAPKLVIYAATSRHSGVPSRFSGSGSGTDFTLTISSLQPEDFATYYCQQSYESPLTFGGGTKVEIK : 3.42
374_F08 (antibody, V domains shown, Group III) VH: EVQLLESGGGLVQPGGSLRLSCAASGFTFDSYSMNWVRQAPGKGLEWVSGINYNGGYKSYADSVKGRFTISRDNSKNTLYLQMNSLRAEDTAVYYCARGANWHDTALDYWGQGTLVTVSS VL: DIQMTQSPSSLSASVGDRVTITCRASQSILTYVNWYQQKPGKAPKLVIYAVTSRASGVPSRFSGSGSGTDFTLTISSLQPEDFATYYCQQSYDTPLTFGGGTKVEIK : 3.68
376_C04 (antibody, V domains shown, Group III) VH: EVQLLESGGGLVQPGGSLRLSCAASGFTFSSYGMNWVRQAPGKGLEWVSNINYNGGYTGYADSVKGRFTISRDNSKNTLYLQMNSLRAEDTAVYYCARGANWHDTALDYWGQGTLVTVSS VL: DIQMTQSPSSLSASVGDRVTITCRASQSILSYVNWYQQKPGKAPKLLIYAVTSRHSGVPSRFSGSGSGTDFTLTISSLQPEDFATYYCQQSYDNPLTFGGGTKVEIK : 3.65
373_A09 (antibody, V domains shown, Group III) VH: EVQLLESGGGLVQPGGSLRLSCAASGFTFDSYSMNWVRQAPGKGLEWVAGINYNGGYTSYADSVKGRFTISRDNSKNTLYLQMNSLRAEDTAVYYCARGANWHDTALDYWGQGTLVTVSS VL: DIQMTQSPSSLSASVGDRVTITCRASQSILTYLNWYQQKPGKAPKLLIYAATSLASGVPSRFSGSGSGTDFTLTISSLQPEDFATYYCQQSYDTPLTFGGGTKVEIK : 3.62

Then there is this binder:
Suppose we examine the binder 369_D03 (antibody, V domains shown, Group III) VH: EVQLLESGGGLVQPGGSLRLSCAASGFTFSSYSMNWVRQAPGKGLEWVSGINYNGGYTSYADSVKGRFTISRDNSKNTLYLQMNSLRAEDTAVYYCARGANWHDTHLDYWGQGTLVTVSS VL: DIQMTQSPSSLSASVGDRVTITCRASQSILTYLNWYQQKPGKAPKLVIYAATSRASGVPSRFSGSGSGTDFTLTISSLQPEDFATYYCQQSYENPLTFGGGTKVEIK ; what optical density value has been reported?
3.55
